- Tested on: OVCAR-8
- method: NCI tumour cell line growth inhibition, 48 h
Activity calls are given as the source filed them. No stated cut-off is given here; in the data, active = GI50 up to about 1.1 µM and inactive = higher.
Response enum: 1.0 = active, 0.0 = inactive

Examples with answers:
molecule | category_label
Cc1ccc(C2=C(c3ccccc3)C(Br)(c3ccccc3)C(c3ccccc3)=C2c2ccc(C)cc2)cc1 | 0.0
O=S(=O)(O)c1ccc(Nc2ccnc3cc(Cl)ccc23)cc1 | 0.0
CC(=O)N(CCc1ccccc1)C(C#N)c1ccccc1 (configuration not stated) | 0.0
O=C(Nc1cc(Cl)ccc1Cl)c1cc2ccccc2oc1=O | 0.0
COCC(=O)[C@]1(O)Cc2c(O)c3c(c(O)c2[C@@H](OC2CC(N)C(O)C(C)O2)C1)C(=O)c1c(OC)cccc1C3=O (some centres not stated) | 1.0
S=P(N1CCCC1)(N1CC1)N1CC1 | 0.0

Hi, sorry to bother you, what did the test record for `O=C(/C=N/O)Nc1cccc(Cl)c1I` ?
0.0

----------
- Tested on: EKVX
- method: NCI tumour cell line growth inhibition, 48 h
Active and inactive are the calls of the source. Rule as the data show it: active = GI50 up to about 1.1 µM and inactive = higher.
Response enum: true for active, false for inactive

Examples with answers:
molecule | category_label
NC(CCCCNc1ccn(C2OC(CO)C(O)C2O)c(=O)n1)C(=O)O (centres undefined) | false
Cc1ccc(S(=O)(=O)NC(=O)NC23CC4CC(CC(F)(C4)C2)C3)cc1 | false
CNC(=O)Oc1ccc(-c2cn3cc(OC(=O)NC)ccc3n2)cc1 | false

Kindly review the next molecule as well.
Hi, sorry to bother you, what did the test record for CC(=O)OC1CC2(O)C(CCC3(C)C(c4ccc(=O)oc4)CCC32O)C2(C)CCC(O)C=C12 (centres undefined) ?
true

----------
- System: CCRF-CEM
- method: NCI tumour cell line growth inhibition, 48 h
Calls of active or inactive are those of the source. Cut-off read from the data, not from the text of the source: active = GI50 up to about 1.1 µM and inactive = higher.
reported_property: GI50

Here is how some molecules turned out for GI50.
molecule | system_name | GI50
COC(=O)C(C)(C)NC(=O)C(Cc1ccccc1)Nc1ncnc2c1ncn2-c1ccc(OC)cc1 (stereo not given) | CCRF-CEM | 13.5 µM (inactive)
C[C@@H]1OC(=O)C[C@H]2CC(=O)N(CCC3CN(S(=O)(=O)C(F)(F)F)c4ccccc43)C[C@@H]21 (stereo not given in full) | CCRF-CEM | > 100 µM (inactive)
C=C(C)COc1cc(/N=C(/S)OC(C)C)ccc1Cl | CCRF-CEM | 13.5 µM (inactive)
O=NN1CCNC1Cc1ccccc1 (stereo not given) | CCRF-CEM | 31.8 µM (inactive)
CNC(=O)CCCNC(=O)CCCC(=O)OC | CCRF-CEM | > 100 µM (inactive)

Please list GI50 recorded for the molecule CCOP(=O)(OCC)C(Nc1ccc(Cl)cc1)c1ccc(F)cc1 (stereo not given)
29.5 µM (inactive)

Please list GI50 recorded for the molecule `C[n+]1cccc(/C=C/c2ccc3cccc(O)c3n2)c1`
45.7 µM (inactive)

Please list GI50 recorded for the molecule `CCOC(=O)C(=CNC(=S)c1ccncc1)C(=O)OCC`
> 100 µM (inactive)

Please list GI50 recorded for the molecule CC1=C(Cl)C=CP(=O)(OC(C)C)C1 (stereo not given)
37.5 µM (inactive)

Please list GI50 recorded for the molecule CC(=O)O[C@@H](C1C[C@@H](C)[C@H]2[C@@](O)(O1)[C@H](O)[C@@]1(C)C3=CC[C@H]4C(C)(C)[C@@H](OC5OCC(O)C(O)C5O)CC[C@@]45C[C@@]35CC[C@]21C)C(C)(C)O (stereo not given in full)
2.82 µM (inactive)

----------
- Test system: HOP-92
- method: NCI tumour cell line growth inhibition, 48 h
The source made the active and inactive calls. No stated cut-off is given here; in the data, active = GI50 up to about 1.1 µM and inactive = higher.
Response enum: active, inactive

compound | category_label
NS(=O)(=O)c1ccc(Nc2c3ccccc3nc3c(C(=O)N4CCN(CCO)CC4)cccc23)cc1 | inactive
COC(=O)C1CCC(=O)N1C(c1ccc(OC)cc1)c1cc(OC)c(OC)c(OC)c1 (stereo unspecified) | inactive
Nc1nc(Cl)cc(NCC2CC(O)(CO)C2)n1 (stereo unspecified) | inactive
C=C(CCC/C(C)=C/C=C/[C@H](C)CCCc1ccoc1)C[C@@H]1OC(=O)[C@H](C)[C@@H]1O | inactive
COc1cc2c(cc1OC)[C@@H](C(O)c1ccccc1)NCC2 (stereo partly specified) | inactive
O=C1CSC2(CC(/C=C/c3ccccc3)=NN2c2cccc(S(=O)(=O)O)c2)N1c1nc2ccccc2s1 (stereo unspecified) | inactive
Cc1c2c(c(C)c3c4c(oc13)CCCC4)C=NCC2 | inactive
COc1ccc(NN=C2C(=O)CCC2=O)cc1 | inactive

Hi, sorry to bother you, what did the test record for `Oc1ccc2ccccc2c1-c1nnc(CCCCCCCCc2nnc(-c3c(O)ccc4ccccc34)o2)o1` ?
inactive

Hi, sorry to bother you, what did the test record for `CSc1n[n+]2c(s1)SCCC2` ?
inactive

Hi, sorry to bother you, what did the test record for O=C(O)C12CC3CC(C1)C2C=C3P(=O)(O)O (stereo unspecified) ?
inactive

Hi, sorry to bother you, what did the test record for CCC(C)(O)c1cnc(CC(C)C)c(=O)n1O (stereo unspecified) ?
inactive

Hi, sorry to bother you, what did the test record for `Cn1c(=O)c2nc(SCc3ccccn3)[nH]c2n(C)c1=S` ?
inactive

Hi, sorry to bother you, what did the test record for `CC[C@@H](/C=C\CCC1(C[C@@H](N)CCC=C(C)C)OCCO1)O[Si](C(C)C)(C(C)C)C(C)C` ?
inactive

Hi, sorry to bother you, what did the test record for `Cc1csc(-c2cn(C)c3c2C(=O)C(=N)C=C3O)n1` ?
inactive

Hi, sorry to bother you, what did the test record for O=C1CCC2(c3ccc(Cl)cc3)Nc3ccccc3N12 (stereo unspecified) ?
inactive

Hi, sorry to bother you, what did the test record for CCOC(C)O[C@H]1C(=O)OCC1(C)C (stereo partly specified) ?
inactive

Hi, sorry to bother you, what did the test record for CN1CCCC2(CCCc3ccccc32)C1 (stereo unspecified) ?
inactive

Hi, sorry to bother you, what did the test record for NC(CCCCNc1ccn(C2OC(CO)C(O)C2O)c(=O)n1)C(=O)O (stereo unspecified) ?
inactive

Hi, sorry to bother you, what did the test record for O=C1[C@H]2ON(c3ccccc3)C(c3ccc(Cl)cc3Cl)[C@H]2C(=O)N1c1ccc(Cc2ccc(N3C(=O)[C@@H]4ON(c5ccccc5)C(c5ccc(Cl)cc5Cl)[C@@H]4C3=O)cc2)cc1 (stereo partly specified) ?
inactive

Hi, sorry to bother you, what did the test record for CC(=O)OC1CC2(O)C(CCC3(C)C(c4ccc(=O)oc4)CCC32O)C2(C)CCC(O)C=C12 (stereo unspecified) ?
active

----------
- Test system: A549
- method: NCI tumour cell line growth inhibition, 48 h
Calls of active or inactive are those of the source. No stated cut-off is given here; in the data, active = GI50 up to about 1.1 µM and inactive = higher.
Known GI50 of a selection of compounds

Here is how some compounds turned out for GI50.
compound | system_name | GI50
CCP(=S)(CC)CCl | A549 | > 100 µM (inactive)
CCN(CC)CCNc1ccc2nnn3c4ccc(OCCN(CC)CC)cc4c(=O)c1c23 | A549 | 44.9 µM (inactive)
CC(C)(C)C(=O)C(C(=O)c1ccccc1)C(=O)C(C)(C)C | A549 | > 100 µM (inactive)
CCOC(=O)NC(Nc1ccc(C(=O)O)cc1)(C(F)(F)F)C(F)(F)F | A549 | > 100 µM (inactive)
CN1CCN(CC(=O)N2c3ccccc3Sc3cc4ccccc4cc32)CC1 | A549 | 15.3 µM (inactive)

Please list GI50 recorded for the compound `O=C1C(Br)=C(Br)C(=O)c2ccccc21`
13.6 µM (inactive)

Please list GI50 recorded for the compound `C=CCN1C[C@@H](C)N([C@@H](c2ccccc2)c2ccc(C(=O)N(CC)CC)cc2)C[C@@H]1C`
> 100 µM (inactive)

Please list GI50 recorded for the compound CCNC(=O)C1CCCN1C(=O)C(CCCN=C(N)N)NC(=O)C(CC(C)C)NC(=O)C(Cc1c[nH]c2ccccc12)NC(=O)C(Cc1ccc(O)cc1)NC(=O)C(CO)NC(=O)C(Cc1c[nH]c2ccccc12)NC(=O)C(Cc1c[nH]cn1)NC(=O)C1CCC(=O)N1 (centres undefined)
> 100 µM (inactive)

Please list GI50 recorded for the compound `C[B@@-]1(c2ccc(C(F)(F)F)cc2)N[C@@H](Cc2ccccc2)C(=O)O1`
> 100 µM (inactive)

----------
Known GI50 of a selection of molecules
- System: MDA-MB-231
- method: NCI tumour cell line growth inhibition, 48 h
Active and inactive are the calls of the source. No stated cut-off is given here; in the data, active = GI50 up to about 1.1 µM and inactive = higher.

Here is how some molecules turned out for GI50.
molecule | reported_value
C=CCN1C[C@@H](C)N([C@@H](c2ccccc2)c2ccc(C(=O)N(CC)CC)cc2)C[C@@H]1C | > 100 µM (inactive)
Cc1nc(C)c(N2CCNCC2)c(O)n1 | > 100 µM (inactive)
C=C1CCC2[C@](C)(CCC[C@]2(C)C(=O)O)[C@@H]1CCc1ccoc1 (stereo not given in full) | 49.2 µM (inactive)

Please list GI50 recorded for the molecule `O=C(O)/C=C/c1ccc(OS(=O)(=O)O)cc1`
> 100 µM (inactive)

Please list GI50 recorded for the molecule COC(=O)C1=C(O)C(C(=O)OC)[C@@]2(O)[C@@H](C(=O)OC)[C@H](C)[C@@H](C)[C@@H]1[C@@H]2C(=O)OC (stereo not given in full)
> 100 µM (inactive)
